Target: delF508-CFTR (Homo sapiens, UniProt P13569, DEL508-508)
Construct: expressed in transfected cells
Sequence (P13569 with tags, fused parts or gaps DEL508-508): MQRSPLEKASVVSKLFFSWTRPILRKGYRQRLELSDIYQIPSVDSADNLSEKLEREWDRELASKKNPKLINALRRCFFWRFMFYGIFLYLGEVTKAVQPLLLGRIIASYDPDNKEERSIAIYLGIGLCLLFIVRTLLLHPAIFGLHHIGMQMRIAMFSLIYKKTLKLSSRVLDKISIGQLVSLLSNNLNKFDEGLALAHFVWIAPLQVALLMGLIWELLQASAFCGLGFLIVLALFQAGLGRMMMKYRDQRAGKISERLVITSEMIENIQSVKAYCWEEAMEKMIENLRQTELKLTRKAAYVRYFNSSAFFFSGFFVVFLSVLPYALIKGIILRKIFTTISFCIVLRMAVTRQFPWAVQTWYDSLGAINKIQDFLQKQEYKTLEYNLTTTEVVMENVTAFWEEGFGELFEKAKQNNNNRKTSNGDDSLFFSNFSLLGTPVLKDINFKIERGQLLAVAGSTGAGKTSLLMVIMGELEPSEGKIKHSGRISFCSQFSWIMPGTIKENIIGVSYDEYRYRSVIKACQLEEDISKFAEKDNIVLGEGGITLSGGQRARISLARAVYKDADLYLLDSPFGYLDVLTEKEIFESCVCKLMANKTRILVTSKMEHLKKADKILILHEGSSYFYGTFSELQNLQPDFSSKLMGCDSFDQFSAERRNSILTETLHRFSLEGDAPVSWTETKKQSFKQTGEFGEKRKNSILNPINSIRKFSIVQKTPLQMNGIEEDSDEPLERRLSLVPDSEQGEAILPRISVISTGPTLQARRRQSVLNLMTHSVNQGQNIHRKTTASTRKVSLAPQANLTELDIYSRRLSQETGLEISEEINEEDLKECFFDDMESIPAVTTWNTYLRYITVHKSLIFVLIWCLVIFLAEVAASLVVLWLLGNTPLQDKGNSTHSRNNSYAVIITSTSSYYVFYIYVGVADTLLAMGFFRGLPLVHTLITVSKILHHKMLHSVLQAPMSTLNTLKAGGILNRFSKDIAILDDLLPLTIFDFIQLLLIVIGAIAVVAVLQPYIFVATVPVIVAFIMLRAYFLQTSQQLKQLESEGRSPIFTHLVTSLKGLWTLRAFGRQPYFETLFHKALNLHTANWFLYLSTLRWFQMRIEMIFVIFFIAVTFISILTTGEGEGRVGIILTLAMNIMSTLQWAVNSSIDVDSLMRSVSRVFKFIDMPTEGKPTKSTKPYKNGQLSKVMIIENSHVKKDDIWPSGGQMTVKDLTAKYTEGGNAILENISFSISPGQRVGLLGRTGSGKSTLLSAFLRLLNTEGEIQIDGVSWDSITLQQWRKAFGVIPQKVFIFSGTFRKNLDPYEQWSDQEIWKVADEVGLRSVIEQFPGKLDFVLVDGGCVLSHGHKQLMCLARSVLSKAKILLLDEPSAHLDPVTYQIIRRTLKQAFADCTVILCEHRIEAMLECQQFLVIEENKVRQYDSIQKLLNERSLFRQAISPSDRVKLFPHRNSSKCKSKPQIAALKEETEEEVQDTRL
Assay: Measurement of delF508-CFTR-HRP surface expression in CFBE41o- cells
Type: cell-based
Conditions: CFBE41o-; efficacy relative to reference compound 3-(6-(1-(2,2-difluorobenzo[d][1,3]dioxol-5-yl)cyclopropane-1-carboxamido)-3-methylpyridin-2-yl)benzoic acid; read-out: DelF508-CFTR-HRP Amax %
assayReadout: Emax (%)

Below, each entry is followed by its recorded Emax result.
CN1CCCCCCN(C)c2ncccc2-c2nc(ccc2C(F)(F)F)NS(=O)(=O)c2cccc1n2 = 564
O=S1(=O)Nc2ccc(C(F)(F)F)c(n2)-c2ccccc2CCCCCN(CCN2CCNCC2)c2cccc1n2 = 348
NCCN1CCCCCc2ccccc2-c2nc(ccc2C(F)(F)F)NS(=O)(=O)c2cccc1n2 = 259
CN1CCN(CCN2CCCCCc3ccccc3-c3nc(ccc3C(F)(F)F)NS(=O)(=O)c3cccc2n3)CC1 = 162
O=S1(=O)Nc2ccc(C(F)(F)F)c(n2)-c2ccccc2CCCCN(CCO)c2cccc1n2 = 737

1 = O=S1(=O)Nc2ccc(C(F)(F)F)c(n2)-c2ccccc2CCCCCCN(CCCO)c2cccc1n2
2 = O=S1(=O)Nc2ccc(C(F)(F)F)c(n2)-c2ccccc2CCCCCN(CCN2CC(O)C2)c2cccc1n2
3 = O=S1(=O)Nc2ccc(C(F)(F)F)c(n2)-c2ccccc2CCCCCN(CCN2CCOCC2)c2cccc1n2
4 = O=S1(=O)Nc2ccc(C(F)(F)F)c(n2)-c2ccccc2CCCCC(CCCO)Oc2cccc1n2 (stereo not shown)
Exam item: Write the entries in order, lowest recorded Emax first. // list labels; follow requested order
Marked response: 4, 2, 3, 1

P = O=S1(=O)Nc2ccc(C(F)(F)F)c(n2)-c2ccccc2CCCCCN(CCCCCO)c2cccc1n2
Q = O=S1(=O)Nc2ccc(C(F)(F)F)c(n2)-c2ccccc2CCCCCN(CCOCCCO)c2cccc1n2
R = O=S1(=O)Nc2ccc(C(F)(F)F)c(n2)-c2cccnc2NCCCNc2cccc1n2
Exam item: Write the entries in order, lowest recorded Emax first. // list labels; follow requested order
Marked response: R, Q, P
(R: 29%, Q: 489%, P: 708%)

I = O=C(O)CCOCCN1CCCCCc2ccccc2-c2nc(ccc2C(F)(F)F)NS(=O)(=O)c2cccc1n2
II = Cc1ccc2nc1-c1ccccc1CCCCCN(CCCC(=O)O)c1cccc(n1)S(=O)(=O)N2
Exam item: Compare Emax: is it lower for I or for II ? Mark your selection by writing its label.
Marked response: II

a = O=CCCCN1CCCCCc2ccccc2-c2nc(ccc2C(F)(F)F)NS(=O)(=O)c2cccc1n2
b = O=C(O)CCN1CCCCOc2ccc(F)cc2-c2nc(ccc2C(F)(F)F)NS(=O)(=O)c2cccc1n2
Exam item: Compare Emax: is it lower for a or for b ? Mark your selection by writing its label.
Marked response: b

1 = CC(C)(CN1CCCCCc2ccc(F)cc2-c2nc(ccc2C(F)(F)F)NS(=O)(=O)c2cccc1n2)C(=O)O
2 = O=S1(=O)Nc2ccc(C(F)(F)F)c(n2)-c2cccnc2NCCCCCCNc2cccc1n2
Exam item: Larger number for Emax: 1 , or 2 ? Mark your selection by writing its label.
Marked response: 1
(1: 792%, 2: 386%)

A = CN1CCCCCCc2ccccc2-c2nc(ccc2C(F)(F)F)NS(=O)(=O)c2cccc1n2
B = O=S1(=O)Nc2ccc(C(F)(F)F)c(n2)-c2cccnc2OCCCCCNc2cccc1n2
Exam item: Larger number for Emax: A , or B ? Mark your selection by writing its label.
Marked response: A
(A: 715%, B: 443%)

---

Biological target: delF508-CFTR (Homo sapiens, UniProt P13569, DEL508-508)
Construct: expressed in transfected cells
Test: Measurement of delF508-CFTR-HRP surface expression in CFBE41o- cells
Type: cell-based
Conditions: CFBE41o-; efficacy relative to reference compound 3-(6-(1-(2,2-difluorobenzo[d][1,3]dioxol-5-yl)cyclopropane-1-carboxamido)-3-methylpyridin-2-yl)benzoic acid; read-out: DelF508-CFTR-HRP Amax %
assayReadout: Emax (%)

O=S1(=O)Nc2ccc(C(F)(F)F)c(n2)-c2ccccc2CCCCCNc2cccc1n2 [Compound 118] = 705
CCN1CCCCCc2ccccc2-c2nc(ccc2C(F)(F)F)NS(=O)(=O)c2cccc1n2 [Compound 18] = 802
O=C(O)CCCCCN1CCCCCc2ccccc2-c2nc(ccc2C(F)(F)F)NS(=O)(=O)c2cccc1n2 [Compound 70] = 843
O=C(O)CCN1CCCCCc2ccc(F)cc2-c2nc(ccc2C(F)(F)F)NS(=O)(=O)c2cccc1n2 [Compound 97] = 728
O=C(O)CCCN1CCCCc2ccccc2-c2nc(ccc2Cl)NS(=O)(=O)c2cccc1n2 [Compound 91] = 721
